Here the recorded normalized growth is given for each entry.
ASSAY_SUMMARY: chemical genetic growth profiling, strain panel (AID 1159580);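 note: tested at 20 µM; growth read once vehicle control cultures reached saturation at 30 °C; 1 = growth at the plate median or of vehicle wells; lower values mean less growth of the strain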
MEASUREMENT_PARAMETERS: S. cerevisiae deletion strains, growth OD, locus YNR052C, strain pop2, stronger effect = lower value
Screen size: about 5,500 compounds; about 2,000 (36%) were called active. About 18% were inconclusive and are not listed. The list shows a part of the results.

COMPOUND	normalized growth
COc1cc(S(C)=O)ccc1-c1nc2ncccc2[nH]1 (stereo not drawn)	0.976 (inactive)
CCN(CCCc1ccccc1)CCCc1ccccc1	1.03 (inactive)
CC(=O)O[C@H]1C[C@@H](OC(C)=O)C(C)(C)C2CC(=O)[C@]3(C)C(CC[C@@]4(C)[C@H](c5ccoc5)OC(=O)[C@H]5O[C@]543)[C@]21C (stereo partly drawn)	1.02 (inactive)
COc1c(Cl)ccc(Cl)c1C(=O)O	1.01 (inactive)
CCCCC[C@H](CC(=O)NO)C(=O)N[C@H](C(=O)N1CCC[C@H]1CO)C(C)C	1.02 (inactive)
CC(=O)OCC(=O)[C@@]1(O)[C@H](OC(C)=O)CC2C3CCC4=CC(=O)C=C[C@]4(C)[C@@]3(F)[C@@H](O)C[C@@]21C (stereo partly drawn)	1 (inactive)
C[C@]12C=CC(=O)C=C1CCC1C3C[C@@H](O)[C@](O)(C(=O)CO)[C@@]3(C)C[C@H](O)[C@@]12F (stereo partly drawn)	0.988 (inactive)
CC1CCC2(OC1)OC1CC3C4CCC5C[C@@H](O)CCC5(C)C4=CCC3(C)C1[C@@H]2C (stereo partly drawn)	0.981 (inactive)
